target: Nucleotide-binding oligomerization domain-containing protein 2 (Homo sapiens); assay: Antagonist activity at human NOD2 in HEK-Blue hNOD2 cells assessed as reduction in secreted alkaline phosphatase reporter activity at 10 uM preincubated for 3 hrs followed by stimulated with MDP for 20 hrs by Spectrophotometer method; assay type: cell-based; settings: filed as antagonist
METRIC: inhibition (%)

COMPOUND	inhibition / %
CCCCOC(=O)CC1c2cccc(C)c2S(=O)(=O)N1NC(=O)c1ccc(C(F)(F)F)cc1 (stereo not given)	60
CCCCOC(=O)CC1c2cccc(C)c2S(=O)(=O)N1Cc1ccccc1 (stereo not given)	41.4
CCCCOC(=O)CC1c2cccc(C)c2S(=O)(=O)N1Cc1ccc(C(F)(F)F)cc1 (stereo not given)	42.5
CCCCOC(=O)CC1c2cccc(C)c2S(=O)(=O)N1C(=O)c1ccc(C)cc1 (stereo not given)	55.5
CCCCOCCC1c2cccc(C)c2S(=O)(=O)N1C(=O)c1ccc(C(F)(F)F)cc1 (stereo not given)	45.9

---

biological target: Nucleotide-binding oligomerization domain-containing protein 2 (Homo sapiens, UniProt Q9HC29); experiment: Antagonist activity at human NOD2 in HEK-Blue hNOD2 cells assessed as reduction in secreted alkaline phosphatase reporter activity at 10 uM preincubated for 3 hrs followed by stimulated with MDP for 20 hrs by Spectrophotometer method; type: cell-based
Sequence (Q9HC29 whole entry, the tested form may be a part): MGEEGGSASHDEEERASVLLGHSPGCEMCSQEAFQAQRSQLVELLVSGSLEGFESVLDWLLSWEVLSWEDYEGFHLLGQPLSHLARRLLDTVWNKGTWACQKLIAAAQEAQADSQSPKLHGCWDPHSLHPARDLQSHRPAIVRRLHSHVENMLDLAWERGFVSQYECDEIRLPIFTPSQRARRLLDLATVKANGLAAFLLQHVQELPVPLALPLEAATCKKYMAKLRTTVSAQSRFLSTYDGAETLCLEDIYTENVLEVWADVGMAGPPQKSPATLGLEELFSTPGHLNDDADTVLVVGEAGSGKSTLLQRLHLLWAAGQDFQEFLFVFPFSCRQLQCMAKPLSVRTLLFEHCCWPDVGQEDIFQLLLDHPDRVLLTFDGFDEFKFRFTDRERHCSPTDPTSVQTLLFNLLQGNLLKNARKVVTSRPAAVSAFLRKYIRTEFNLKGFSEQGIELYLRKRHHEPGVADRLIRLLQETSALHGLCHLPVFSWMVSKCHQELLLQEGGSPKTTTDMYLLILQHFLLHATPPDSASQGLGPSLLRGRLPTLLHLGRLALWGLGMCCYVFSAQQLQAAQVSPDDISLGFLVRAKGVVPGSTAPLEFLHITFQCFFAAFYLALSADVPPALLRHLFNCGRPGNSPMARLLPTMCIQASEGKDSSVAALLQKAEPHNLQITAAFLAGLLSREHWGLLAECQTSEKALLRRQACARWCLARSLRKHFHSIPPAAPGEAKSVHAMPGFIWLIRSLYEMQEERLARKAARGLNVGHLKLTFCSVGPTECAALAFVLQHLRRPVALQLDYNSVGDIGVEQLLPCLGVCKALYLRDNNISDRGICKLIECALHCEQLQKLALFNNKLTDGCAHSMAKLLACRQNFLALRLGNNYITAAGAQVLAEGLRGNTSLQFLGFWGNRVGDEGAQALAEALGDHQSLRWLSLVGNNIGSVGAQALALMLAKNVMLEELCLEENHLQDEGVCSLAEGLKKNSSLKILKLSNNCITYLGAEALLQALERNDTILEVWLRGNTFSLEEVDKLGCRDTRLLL
METRIC: inhibition (%)

Worked cases, inhibition given:
COMPOUND	inhibition (%)
CCCCOC(=O)CC1c2cccc(C)c2S(=O)(=O)N1CCCC (stereo not drawn)	9.07
CCCCOC(=O)CC1c2cccc(C)c2S(=O)(=O)N1C(=O)c1ccccc1 (stereo not drawn)	24.3
CCCCOC(=O)CC1c2cccc(C)c2S(=O)(=O)N1C(=O)OC (stereo not drawn)	-0.67
Cc1cccc2c1S(=O)(=O)N(C(=O)c1ccc(C(F)(F)F)cc1)C2CC(=O)O (stereo not drawn)	10.3
C=CCN1C(CC(=O)OCCCC)c2cccc(C)c2S1(=O)=O (stereo not drawn)	5.52
CCCCOC(=O)CC1c2cccc(C)c2S(=O)(=O)N1CC(=O)c1ccc(C(F)(F)F)cc1 (stereo not drawn)	7.2

(A) CCCCOC(=O)/C=C/c1cc(C)cc2c1S(=O)(=O)N(C(=O)c1ccc(C(F)(F)F)cc1)C2CC(=O)OCCCC (stereo not drawn)
(B) CCCCOC(=O)CC1c2cccc(C)c2S(=O)(=O)N1C (stereo not drawn)
Given the listed records, identify the one among A and B with higher inhibition. Respond using the label that marks the chosen record. A

(I) CCCCOC(=O)CC1c2cccc(C)c2S(=O)(=O)N1CC (stereo not drawn)
(II) CCCCOC(=O)CC1c2cccc(C)c2S(=O)(=O)N1/C=C\C(=O)OCC (stereo not drawn)
(III) CCCCOC(=O)/C=C1\c2cccc(C)c2S(=O)(=O)N1C(=O)c1ccc(C(F)(F)F)cc1
(IV) Cc1cccc2c1S(=O)(=O)N(C(=O)c1ccc(C(F)(F)F)cc1)C2CC(=O)Nc1ccccc1 (stereo not drawn)
Order the 4 compounds from highest to lowest inhibition. Give the labels in the order specified. III, IV, II, I
(III: 54.4%, IV: 30.3%, II: 20.6%, I: -1%)

---

target: Nucleotide-binding oligomerization domain-containing protein 2 (Homo sapiens); assay: Antagonist activity at human NOD2 in HEK-Blue hNOD2 cells assessed as secreted alkaline phosphatase reporter activity preincubated for 3 hrs followed by stimulated with MDP for 20 hrs by Spectrophotometer method
pIC50: −log10 of the molar value.
METRIC: pIC50

MOLECULE	pIC50
CCCCOC(=O)CC1c2cccc(C)c2S(=O)(=O)N1C(=O)c1ccc(Cl)cc1 (centres undefined)	5.76
CCCCOC(=O)CC1c2cccc(C(=O)OCCCC)c2S(=O)(=O)N1C(=O)c1ccc(C(F)(F)F)cc1 (centres undefined)	5.37
CCCCOC(=O)CC1c2cccc(Cl)c2S(=O)(=O)N1C(=O)c1ccc(C(F)(F)F)cc1 (centres undefined)	5.86
CCCCOC(=O)CC1c2cc(C)cc(C)c2S(=O)(=O)N1C(=O)c1ccc(C(F)(F)F)cc1 (centres undefined)	5.73
CCCCc1noc(CC2c3cccc(C)c3S(=O)(=O)N2C(=O)c2cccc(C(F)(F)F)c2)n1 (centres undefined)	5.24
Cc1cccc2c1S(=O)(=O)N(C(=O)c1ccc(C(F)(F)F)cc1)C2CC(=O)OC(C)(C)C (centres undefined)	5.33
CCCCOC(=O)CC1c2cccc(C)c2S(=O)(=O)N1C(=O)c1ccc(C#N)cc1 (centres undefined)	5.26

(A) CCCCOC(=O)CC1c2c(OC)ccc(OC)c2S(=O)(=O)N1C(=O)c1ccc(C(F)(F)F)cc1 (centres undefined)
(B) CCCCOC(=O)CC1c2cccc(C)c2S(=O)(=O)N1C(=O)c1ccccc1C(F)(F)F (centres undefined)
Given the listed records, identify the one among A and B with higher pIC50. Respond using the label that marks the chosen record. B
(B: 6.32, A: 5.15)

---

biological target: Nucleotide-binding oligomerization domain-containing protein 2 (Homo sapiens, UniProt Q9HC29); test: Antagonist activity at human NOD2 in HEK-Blue hNOD2 cells assessed as secreted alkaline phosphatase reporter activity preincubated for 3 hrs followed by stimulated with MDP for 20 hrs by Spectrophotometer method
METRIC: IC50 (µM)

COMPOUND	RECORDED NUMBER
CCCCOC(=O)CC1c2ccc(Cl)c(C)c2S(=O)(=O)N1C(=O)c1ccc(C(F)(F)F)cc1 (centres undefined)	9.83

(A) CCCCc1nnc(CC2c3cccc(C)c3S(=O)(=O)N2C(=O)c2cccc(C(F)(F)F)c2)o1 (centres undefined)
(B) CCCCOC(=O)CC1c2cccc(C)c2S(=O)(=O)N1C(=O)c1cccc(C(F)(F)F)c1 (centres undefined)
Given the listed records, identify the one among A and B with higher IC50. Respond using the label that marks the chosen record. A
(A: 4.65 µM, B: 0.93 µM)

(I) CCCCOC(=O)CC1c2c(F)ccc(C)c2S(=O)(=O)N1C(=O)c1ccc(C(F)(F)F)cc1 (centres undefined)
(II) CCCCOC(=O)CC1c2cc(F)cc(C)c2S(=O)(=O)N1C(=O)c1ccc(C(F)(F)F)cc1 (centres undefined)
(III) CCCCOC(=O)CC1c2cccc(C)c2C(=O)N1C(=O)c1ccc(C(F)(F)F)cc1 (centres undefined)
(IV) CCCCOC(=O)CC1c2cccc(C)c2S(=O)(=O)N1C(=O)c1ccc(C(F)(F)F)cc1 (centres undefined)
Arrange items by their IC50 values in increasing order. Give the labels in the order specified. IV, III, I, II
(IV: 1.18 µM, III: 2.36 µM, I: 4.05 µM, II: 6.7 µM)

---

molecular target: Nucleotide-binding oligomerization domain-containing protein 2 (Homo sapiens); test: Antagonist activity at human NOD2 in HEK-Blue hNOD2 cells assessed as reduction in secreted alkaline phosphatase reporter activity at 10 uM preincubated for 3 hrs followed by stimulated with MDP for 20 hrs by Spectrophotometer method; type: cell-based
METRIC: inhibition (%)

COMPOUND	MEASUREMENT TARGET	METRIC	U	RECORDED NUMBER
CCCCOC(=O)CC1c2cccc(C)c2S(=O)(=O)N1S(C)(=O)=O (stereo unspecified)	Nucleotide-binding oligomerization domain-containing protein 2 (Homo sapiens)	inhibition	%	5.29
CCCCNC(=O)CC1c2cccc(C)c2S(=O)(=O)N1C(=O)c1ccc(C(F)(F)F)cc1 (stereo unspecified)	Nucleotide-binding oligomerization domain-containing protein 2 (Homo sapiens)	inhibition	%	17.7
CCCCOC(=O)CC1c2cccc(C)c2S(=O)(=O)N1C(=O)c1ccco1 (stereo unspecified)	Nucleotide-binding oligomerization domain-containing protein 2 (Homo sapiens)	inhibition	%	1.83

(a) CCCCOC(=O)CC1c2cccc(C)c2S(=O)(=O)N1C(=O)/C=C/c1ccc(Cl)cc1 (stereo unspecified)
(b) Cc1cccc2c1S(=O)(=O)N(C(=O)c1ccc(C(F)(F)F)cc1)C2CC(N)=O (stereo unspecified)
(c) CCCCOC(=O)CC1c2cccc(C)c2S(=O)(=O)N1C(C)=O (stereo unspecified)
Arrange items by their inhibition values in increasing order. Give the labels in the order specified. b, c, a
